Biological target: T1, Cyno SLC34A2 (cynomolgus monkey, UniProt A0A2K5UHY1 1-690)
T1 construct: whole, on cells; Recombinant, on Rat1E cells; also called cynomolgus monkey SLC34A2; Rat1E cells expressing SLC34A2 (Cynomolgus)
T1 sequence: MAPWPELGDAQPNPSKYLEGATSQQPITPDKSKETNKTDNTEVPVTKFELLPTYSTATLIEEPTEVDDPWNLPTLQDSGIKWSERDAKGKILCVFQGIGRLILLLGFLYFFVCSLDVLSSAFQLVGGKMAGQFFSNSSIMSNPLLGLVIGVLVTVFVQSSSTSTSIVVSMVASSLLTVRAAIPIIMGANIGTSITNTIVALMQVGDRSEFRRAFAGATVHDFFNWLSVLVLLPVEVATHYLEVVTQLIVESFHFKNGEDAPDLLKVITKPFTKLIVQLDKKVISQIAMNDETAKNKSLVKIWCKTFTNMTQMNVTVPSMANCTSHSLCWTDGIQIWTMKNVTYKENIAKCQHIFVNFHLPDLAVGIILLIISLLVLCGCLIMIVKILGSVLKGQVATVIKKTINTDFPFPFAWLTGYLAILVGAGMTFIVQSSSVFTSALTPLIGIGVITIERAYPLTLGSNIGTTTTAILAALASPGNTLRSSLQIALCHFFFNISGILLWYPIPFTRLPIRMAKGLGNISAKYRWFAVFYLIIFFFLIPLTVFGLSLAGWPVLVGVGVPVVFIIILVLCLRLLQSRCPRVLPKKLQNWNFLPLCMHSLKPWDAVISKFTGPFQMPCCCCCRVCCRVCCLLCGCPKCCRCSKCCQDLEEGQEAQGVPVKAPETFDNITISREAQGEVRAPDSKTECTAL
Assay: binding affinity on Rat1E cells expressing cynomolgus SLC34A2
Property Measured: Kd (nM)
Numbers only, in nM.

In: Let me know recorded Kd for cHv83-1b15.G1(L328C)k (antibody, V domains shown, the name says L328C in the IgG1 constant region; also called [Ag]AB-3; cHv83-1b15.G1k(L328C)k) VH: EVQLVESGGGWVQPGGSLRLSCAASGFTFSSHIMYWVRQAPGKGLEYVSGISSNGLSSYYVDSVKGRFTISRDNSKNLLYVHMGSLKPEDMAMYYCARGGRDRVPAVFDYWGQGTLVTVSS VL: DIQMTQSPSSLSASIGDRVTITCRASQSIGTFLNWYQQKPGKAPKVLIYVASSLQSGVPSRFIGSGSGTDFTLTISSLQPEDFATYYCQQSYSVPITFGQGTRLEIKR , thanks.
Out: 0.67
